- TARGET_ENTITY: feline FcRn complex (FcRn-α subunit and β-microglobulin) (feline)
- RUN_DESCRIPTION: SPR (Biacore), FcRn on SA chip, pH 7.4
ASSAY_METRIC: Kd (nM)
The figure you give is taken to be in nM; do not add the unit.

{"BINDER": "feline IgG1a mutant ID No. 326: S428Y, D312P, S434Y, P247V, S252H (antibody, part only; not given: Variable domains, not shown: another chain or arm of the molecule; small tags and cut ends) constant: ASTTAPSVFPLAPSCGTTSGATVALACLVLGYFPEPVTVSWNSGALTSGVHTFPAVLQASGLYSLSSMVTVPSSRWLSDTFTCNVAHPPSNTKVDKTVRKTDHPPGPKPCDCPKCPPPEMLGGPSIFIFPPKVKDTLHISRTPEVTCLVVDLGPDDSDVQITWFVDNTQVYTAKTSPREEQFNSTYRVVSVLPILHQPWLKGKEFKCKVNSKSLPSPIERTISKAKGQPHEPQVYVLPPAQEELSRNKVSVTCLIKSFHPPDIAVEWEITGQPEPENNYRTTPPQLDSDGTYFVYSKLSVDRSHWQRGNTYTCSVYHEALHYHHTQKSLTQSPGK", "ASSAY_RESULT": 13.7}

The record that follows has no Kd shown yet.
What measured Kd goes with feline IgG1a mutant ID No. 257: S428M, S434Y (antibody, part only; not given: Variable domains, not shown: another chain or arm of the molecule) constant: ASTTAPSVFPLAPSCGTTSGATVALACLVLGYFPEPVTVSWNSGALTSGVHTFPAVLQASGLYSLSSMVTVPSSRWLSDTFTCNVAHPPSNTKVDKTVRKTDHPPGPKPCDCPKCPPPEMLGGPSIFIFPPKPKDTLSISRTPEVTCLVVDLGPDDSDVQITWFVDNTQVYTAKTSPREEQFNSTYRVVSVLPILHQDWLKGKEFKCKVNSKSLPSPIERTISKAKGQPHEPQVYVLPPAQEELSRNKVSVTCLIKSFHPPDIAVEWEITGQPEPENNYRTTPPQLDSDGTYFVYSKLSVDRSHWQRGNTYTCSVMHEALHYHHTQKSLTQSPGK ?
21.9
